# System: PRKCI
# experimentalContext: concentration: 1 μM, replicates: in singlicate; n = 1;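 also: KINOMEscan kinase panel screen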
// NB: equality with 20% counts as No; only %Inh strictly below is Yes

> print(dat)
                               recordsmiles  discretelabel
1  O=c1cc(N2CCOCC2)nc2n(Cc3cccc(Cl)c3)ccn12             No
2   CSc1ccc(NC2=C(c3ccccc3Cl)C(=O)NC2=O)cc1            Yes
3  Cl.Fc1ccccc1COc1ccc(Nc2ncnc3ccc(-c4nnc(C(F)(F)F)o4)cc23)cc1Cl            Yes

input: Given `Clc1ccc(-c2cc(-c3c[nH]nc3-c3ccccn3)ccn2)cc1` , is recorded %Inh strictly lower than 20%?
output: Yes

input: hey, is %Inh for `Cl.c1ccc(Cn2ncc3cc(Nc4ncnc5ccccc45)ccc32)cc1` lower than 20% or not?
output: Yes

input: Determine if `COc1cc2ncnc(Nc3ccc(OCc4ccccc4Br)c(Cl)c3)c2cc1OC.Cl` shows %Inh strictly lower than 20%.
output: No

input: Answer whether the molecule `CCc1nc(-c2cccc(C)c2)c(-c2ccnc(NC(=O)c3ccccc3)c2)s1` has %Inh strictly less than 20%
output: Yes

input: is_below(%Inh, 20%) for `Clc1cccc(-c2nc(Nc3ccncc3)c3ccccc3n2)c1` ?
output: Yes

input: Strictly below 20% in %Inh? `O=C(Nc1ccccc1)Nc1ccc(Oc2ccc3nccn3n2)cc1`
output: Yes

* * *

# Tested on: DCAMKL1
# Construct: gene DCLK1
# experimentalContext: concentration: 1 μM, replicates: in singlicate; n = 1
observable: %Inh (%)
One number for each entry, in %.

Past entries and their recorded results:
> print(dat)
                                   compound  observable  measvalue
1  Cn1cc(-c2ccc3c(c2)CCN3C(=O)Cc2cccc(C(F)(F)F)c2)c2c(N)ncnc21        %Inh          8
2   Clc1cc(Nc2ncnc3cc[nH]c23)ccc1OCc1ccccn1        %Inh         26
3  N#Cc1ccc(Oc2ccc(Nc3ncnc4cc[nH]c34)cc2Cl)cc1        %Inh          9
4  CNc1nccc(-c2c(-c3ccc(F)cc3)ncn2C2CCN(C)CC2)n1        %Inh         19
5  Fc1ccc(-c2ncn(CCCNCc3ccccc3)c2-c2ccncc2)cc1        %Inh          0

# batch: return %Inh for each of the 2 compounds below
1. Nc1nccc2scc(-c3ccc4c(c3)CCN4C(=O)Cc3cc(F)ccc3F)c12
2. O=C(Nc1ccccc1F)NC1CCN(c2ccnc(Nc3ccc(F)cc3)n2)C1 (stereo not drawn)

output:
14
0

For every listed record, write down its %Inh.
1. Cn1ccc2ncnc(Oc3ccc(NC(=O)Nc4cccnc4)c(Cl)c3)c21
2. CCCc1ccc(S(=O)(=O)NC2CCN(c3ccnc(Nc4ccc(OC)cc4)n3)C2)cc1 (stereo not drawn)

output:
1: 11; 2: 7

* * *

# Tested on: HPK1
# experimentalContext: concentration: 1 μM, replicates: in singlicate; n = 1
Binary call on %Inh: Satisfied from 40% upward, Not satisfied beneath that.

Known results for compounds:
> print(dat)
                                   compound  discretelabel
1  FC(F)(F)c1ccc(-c2cc(-c3c[nH]nc3-c3ccccn3)ccn2)cc1  Not satisfied
2  COC(=O)c1cccc(NC(=O)NCCNc2ccnc(Nc3ccc(F)cc3)n2)c1      Satisfied
3  OCCOCCn1ccc2ncnc(Nc3ccc(Oc4cccc(Cl)c4)c(Cl)c3)c21  Not satisfied
4  Cl.Cn1ccc(-c2cccc(Nc3ccnc4cc(-c5nccs5)ccc34)c2)n1  Not satisfied
5  C[C@H]1CC[C@@H](C(=O)Nc2ccccc2)CN1c1cc(-c2ccc3c(N)n[nH]c3c2)nc(N)n1  Not satisfied
6       CC(C)(C)c1ccc(-n2cnc3c(N)ncnc32)cc1      Satisfied

input: Hi, just wondering whether CCCc1ccc(S(=O)(=O)NC2CCN(c3ccnc(Nc4ccc(OC)cc4)n3)C2)cc1 (stereo not drawn) shows %Inh of 40% or higher.
output: Not satisfied

input: Exam item: decide whether the reported %Inh for `NC(=O)c1sc(-n2cnc3ccccc32)cc1OCc1ccccc1F` is at least 40%.
output: Satisfied
